System: Pseudomonas aeruginosa (ATCC 27883)
condition_label: ATCC 27883
Non-standard residues stand in square brackets, D forms with d. Residues, ends and D or L forms follow the SMILES beside them. dDip = N[C@@H](C(=O)O)C(c1ccccc1)c1ccccc1; Dip = N[C@H](C(=O)O)C(c1ccccc1)c1ccccc1; 2Nal = N[C@@H](Cc1ccc2ccccc2c1)C(=O)O; d2Nal = N[C@H](Cc1ccc2ccccc2c1)C(=O)O
Below, each of the molecules is paired with its reported MIC P. aeruginosa ATCC 27883 value.
Note: unit µg/mL is implicit; provide only the numeric part.

N=C(N)NCCC[C@H](NC(=O)[C@@H](CCCNC(=N)N)NC(=O)[C@@H](N)CCCNC(=N)N)C(=O)N[C@H](CCCNC(=N)N)C(=O)N[C@@H](C(=O)N[C@@H](C(=O)N[C@@H](C(=O)O)C(c1ccccc1)c1ccccc1)C(c1ccccc1)c1ccccc1)C(c1ccccc1)c1ccccc1 [IFX-070-1] (H-R[dR]R[dR][dDip][dDip][dDip]-OH) | 12.5
N=C(N)NCCC[C@@H]1NC(=O)[C@H](CCCNC(=N)N)NC(=O)[C@H](CCCNC(=N)N)NC(=O)[C@H](C(c2ccccc2)c2ccccc2)NC(=O)[C@H](C(c2ccccc2)c2ccccc2)NC(=O)[C@H](C(c2ccccc2)c2ccccc2)NC(=O)[C@H](CCCNC(=N)N)NC1=O [IFX-008, c[Arg-Arg-Arg-Arg-Dip-Dip-Dip]] (cyclo(RRRR[Dip][Dip][Dip])) | 12.5
N=C(N)NCCC[C@@H]1NC(=O)[C@H](CCCNC(=N)N)NC(=O)[C@@H](CCCNC(=N)N)NC(=O)[C@@H](CCCNC(=N)N)NC(=O)[C@H](Cc2ccc3ccccc3c2)NC(=O)[C@H](Cc2ccc3ccccc3c2)NC(=O)[C@@H](Cc2c[nH]c3ccccc23)NC1=O [IFX-121, c[arg-arg-Arg-Arg-trp-NaI-NaI]] (cyclo([dR][dR]RR[dW][2Nal][2Nal])) | 32
N=C(N)NCCC[C@@H]1NC(=O)[C@H](Cc2ccc3ccccc3c2)NC(=O)[C@@H](Cc2ccc3ccccc3c2)NC(=O)[C@H](Cc2ccc3ccccc3c2)NC(=O)[C@@H](CCCNC(=N)N)NC(=O)[C@H](CCCNC(=N)N)NC(=O)[C@@H](CCCNC(=N)N)NC1=O [IFX-085, c[Arg-arg-Arg-arg-NaI-naI-NaI]] (cyclo(R[dR]R[dR][2Nal][d2Nal][2Nal])) | 12.5
N=C(N)NCCC[C@@H]1NC(=O)[C@H](CCCNC(=N)N)NC(=O)[C@H](CCCNC(=N)N)NC(=O)[C@H](CCCCN)NC(=O)[C@H](Cc2c[nH]c3ccccc23)NC(=O)[C@H](Cc2c[nH]c3ccccc23)NC(=O)[C@H](Cc2c[nH]c3ccccc23)NC(=O)[C@H](Cc2c[nH]c3ccccc23)NC(=O)[C@H](CCCNC(=N)N)NC(=O)[C@H](CCCNC(=N)N)NC1=O [IFX-315, [R5W4K]] (cyclo(RRRRRWWWWK)) | 16

Enquiry: Need MIC P. aeruginosa ATCC 27883, item N=C(N)NCCC[C@@H]1NC(=O)[C@H](CCCNC(=N)N)NC(=O)[C@H](CCCNC(=N)N)NC(=O)[C@H](CCCNC(=N)N)NC(=O)[C@@H](Cc2ccc3ccccc3c2)NC(=O)[C@H](Cc2ccc3ccccc3c2)NC(=O)[C@H](Cc2ccc3ccccc3c2)NC1=O [IFX-074, c[Arg-Arg-Arg-Arg-NaI-NaI-naI]] (cyclo(RRRR[2Nal][2Nal][d2Nal]))
Return: 12.5

* * *

Tested on: Pseudomonas aeruginosa (ATCC 27883)
condition_label: ATCC 27883
Non-standard residues stand in square brackets, D forms with d. Residues, ends and D or L forms follow the SMILES beside them. Dip = N[C@H](C(=O)O)C(c1ccccc1)c1ccccc1; 2Nal = N[C@@H](Cc1ccc2ccccc2c1)C(=O)O
Let's look at some compounds and their measured MIC P. aeruginosa ATCC 27883.

N=C(N)NCCC[C@@H]1NC(=O)[C@H](CCCNC(=N)N)NC(=O)[C@@H](CCCNC(=N)N)NC(=O)[C@H](CCCNC(=N)N)NC(=O)[C@H](Cc2ccc3ccccc3c2)NC(=O)[C@H](Cc2ccc3ccccc3c2)NC(=O)[C@H](Cc2ccc3ccccc3c2)NC1=O [IFX-079, c[Arg-arg-Arg-Arg-NaI-NaI-NaI]] (cyclo(R[dR]RR[2Nal][2Nal][2Nal])) | 12.5 mg/L
N=C(N)NCCC[C@H](NC(=O)[C@@H](NC(=O)[C@@H](NC(=O)[C@H](CCCNC(=N)N)NC(=O)[C@H](CCCNC(=N)N)NC(=O)[C@@H](NC(=O)[C@@H](N)CCCNC(=N)N)C(c1ccccc1)c1ccccc1)C(c1ccccc1)c1ccccc1)C(c1ccccc1)c1ccccc1)C(=O)O [IFX-016-1, NH2-Arg-Dip-Arg-Arg-Dip-Dip-Arg-OH] (H-R[Dip]RR[Dip][Dip]R-OH) | >100 mg/L

Okay, next one:
Enquiry: Item under review: NCCCC[C@@H]1NC(=O)[C@H](CCCCN)NC(=O)[C@H](CCCCN)NC(=O)[C@H](C(c2ccccc2)c2ccccc2)NC(=O)[C@H](C(c2ccccc2)c2ccccc2)NC(=O)[C@H](C(c2ccccc2)c2ccccc2)NC(=O)[C@H](CCCCN)NC(=O)[C@H](CCCCN)NC1=O [IFX-015, c[Lys-Lys-Lys-Lys-Lys-Dip-Dip-Dip]] (cyclo([Dip][Dip][Dip]KKKKK)) . Reported MIC P. aeruginosa ATCC 27883?
Return: >100 mg/L

* * *

System: human red blood cells
Parameters: unit not given beside the values
Non-standard residues stand in square brackets, D forms with d. Residues, ends and D or L forms follow the SMILES beside them. Trp(6-Cl) = N[C@@H](Cc1c[nH]c2cc(Cl)ccc12)C(=O)O; Dip = N[C@H](C(=O)O)C(c1ccccc1)c1ccccc1; 2Nal = N[C@@H](Cc1ccc2ccccc2c1)C(=O)O; d2Nal = N[C@H](Cc1ccc2ccccc2c1)C(=O)O; Dab = NCC[C@H](N)C(=O)O
Each entry falls into one class according to its HC50; the ranges are category 1: < 300; category 2: ≥ 300 and < 400; category 3: ≥ 400

N=C(N)NCCC[C@@H]1NC(=O)[C@H](CCCNC(=N)N)NC(=O)[C@H](Cc2ccc3ccccc3c2)NC(=O)[C@H](Cc2ccc3ccccc3c2)NC(=O)[C@H](Cc2ccc3ccccc3c2)NC(=O)[C@H](CCCNC(=N)N)NC1=O [IFX-003, c[Arg-Arg-Arg-NaI-NaI-NaI]] (cyclo([2Nal][2Nal][2Nal]RRR)) | category 1
N=C(N)NCCC[C@@H]1NC(=O)[C@@H](CCCNC(=N)N)NC(=O)[C@H](CCCNC(=N)N)NC(=O)[C@@H](Cc2ccc3ccccc3c2)NC(=O)[C@@H](Cc2ccc3ccccc3c2)NC(=O)[C@H](Cc2c[nH]c3ccccc23)NC(=O)[C@H](CCN)NC(=O)[C@@H](CCCNC(=N)N)NC1=O [IFX-054, c[Arg-arg-Arg-arg-Dab-Trp-naI-naI]] (cyclo([Dab]W[d2Nal][d2Nal]R[dR]R[dR])) | category 3
N=C(N)NCCC[C@@H]1NC(=O)CNC(=O)[C@H](Cc2c[nH]c3ccccc23)NC(=O)[C@H](Cc2c[nH]c3ccccc23)NC(=O)[C@H](Cc2c[nH]c3ccccc23)NC(=O)[C@H](Cc2c[nH]c3ccccc23)NC(=O)CNC(=O)[C@H](CCCNC(=N)N)NC(=O)[C@H](CCCNC(=N)N)NC(=O)[C@H](CCCNC(=N)N)NC1=O [IFX-043] (cyclo(GRRRRGWWWW)) | category 3
N=C(N)NCCC[C@@H]1NC(=O)[C@H](CCCNC(=N)N)NC(=O)[C@H](CCCNC(=N)N)NC(=O)[C@H](Cc2c[nH]c3cc(Cl)ccc23)NC(=O)[C@H](Cc2c[nH]c3cc(Cl)ccc23)NC(=O)[C@H](Cc2c[nH]c3cc(Cl)ccc23)NC(=O)[C@H](Cc2c[nH]c3cc(Cl)ccc23)NC(=O)[C@H](CCCNC(=N)N)NC1=O [IFX-040, c[Arg-Arg-Arg-Arg-6clW-6clW-6clW-6clW]] (cyclo(RRRR[Trp(6-Cl)][Trp(6-Cl)][Trp(6-Cl)][Trp(6-Cl)])) | category 3
N=C(N)NCCC[C@@H]1NC(=O)[C@H](CCCNC(=N)N)NC(=O)[C@H](C(c2ccccc2)c2ccccc2)NC(=O)[C@H](C(c2ccccc2)c2ccccc2)NC(=O)[C@H](CCCNC(=N)N)NC(=O)[C@H](CCCNC(=N)N)NC(=O)[C@H](C(c2ccccc2)c2ccccc2)NC1=O [IFX-016, c[Arg-Dip-Arg-Arg-Dip-Dip-Arg]] (cyclo(R[Dip]RR[Dip][Dip]R)) | category 2

Now let's try a different one.
Enquiry: Given N=C(N)NCCC[C@H](NC(=O)[C@H](CCCNC(=N)N)NC(=O)[C@@H](N)CCCNC(=N)N)C(=O)N[C@@H](CCCNC(=N)N)C(=O)N[C@H](C(=O)N[C@H](C(=O)O)C(c1ccccc1)c1ccccc1)C(c1ccccc1)c1ccccc1 [IFX-010-1, NH2-Arg-Arg-Arg-Arg-Dip-Dip-OH] (H-RRRR[Dip][Dip]-OH) , name the class its HC50 places it in.
Return: category 2
